# Tested on: A549
# TEST_METHOD_NOTES: Growth inhibition of human A549 cells by sulforhodamine B assay
# Type: functional
MEASUREMENT_KIND: GI50

CCCCCCCCCCCC[C@@H](O)[C@H]1CC[C@H]([C@H](O)CCCCCCCCCCCCC2=C[C@H](C)OC2=O)O1 [REL-SOLAMIN] | > 100 µM
CCCCCCCCCCCC[C@@H](O)[C@H]1CC[C@H]([C@H](O)CCCCCCCCCC[C@@H](F)CC2=C[C@H](C)OC2=O)O1 | > 100 µM

Looking up CCCCCCCCCCCC[C@@H](O)[C@H]1CC[C@H]([C@H](O)CCCCCCCCCC[C@@H](O)CC2=C[C@H](C)OC2=O)O1 [MURISOLIN] , I found its GI50 recorded as 96 µM

compound CCCCCCCCCCCC[C@@H](O)[C@H]1CC[C@H]([C@H](O)CCCCCCCCCC[C@H](F)CC2=C[C@H](C)OC2=O)O1 , GI50 observed: > 100 µM

Source of measurements: ChEMBL document CHEMBL1152187
